ASSAY EXPLANATION: qHTS assay for identifying genotoxic compounds that show differential cytotoxicity against isogenic chicken DT40 cell lines with known DNA damage response pathways - Rad54/Ku70 mutant cell line (AID 743015); further: nearly all actives have a fitted effect of over 60% in size; further: potency means the concentration at half of the fitted maximal effect
CONDITION INFO: DT40 Rad54/Ku70 mutant viability, CellTiter-Glo, 40 h; series mostly up to 66.8 µM
Records with an inconclusive call do not appear. Activity calls are given as the source filed them. The call rests on the fitted dose curve; in most records, active means well fitted cell-killing curve with a large enough effect in the repeat runs; inconclusive means weak or mixed curves; inactive means no such curve, though single readings can be large or run the other way.
READOUT LABEL: Potency

The cases that follow already have their Potency on record.
COc1c(C(C)(C)C)cc([N+](=O)[O-])c(C)c1[N+](=O)[O-] ... inactive
OC(c1ccc(Cl)cc1)(c1ccc(Cl)cc1)c1cccnc1 ... 8.63 µM (active)
COC(=O)c1cncn1C(C)c1ccccc1 (stereo not drawn) ... inactive
Cn1cc[n+](C)c1 (tested in a mixture with another compound) ... inactive
CN1[C@@H]2CC[C@H]1CC(OC(=O)c1cc(Cl)cc(Cl)c1)C2 (stereo partly drawn) ... 5.96 µM (active)

Q. Name the reported Potency value associated with the compound "O=[N+]([O-])c1ccc(F)c([N+](=O)[O-])c1"
A. inactive

Q. Any idea what its Potency is? The compound is "Cc1ccccc1C(=O)Nc1cccc(OC(C)C)c1"
A. 48.6 µM (active)

Q. // returns reported Potency for input "CC(=O)[C@H]1CC[C@H]2[C@@H]3CC[C@H]4C[C@](C)(O)CC[C@]4(C)[C@H]3CC[C@]12C"
A. inactive

Q. What does the data say about its Potency? Entry: "O=C(NC(=O)c1c(F)cccc1F)Nc1cc(Cl)c(Oc2ncc(C(F)(F)F)cc2Cl)c(Cl)c1"
A. 1.65 µM (active)

Q. Dear colleague, I am looking for the recorded Potency of the following compound: "O=C(C(Cl)(Cl)Cl)C(Cl)(Cl)Cl"
A. inactive

====

ASSAY EXPLANATION: qHTS assay to identify small molecule agonists of H2AX (AID 1224845)
CONDITION INFO: CHO-K1 phospho-H2AX Ser139 HTRF, 3 h; series mostly up to 154 µM
Results filed as inconclusive are left out. Calls of active or inactive are those of the source. Calls follow the shape of the dose curve; as a rule, active = well fitted activation curve with a large enough effect in the signal ratio in the repeat runs (not every such curve was filed as active); inconclusive = weak or mixed curves; inactive = flat fitted curve, though single readings scatter; the % refers to the signal ratio.
Valid outcomes are listed here; reply with one: active, inactive

Q. In this assay, the call recorded for "CCOC(=O)[C@]1(c2ccccc2)Oc2ccccc2[C@@H]1N" was what?
A. inactive

Q. Field: outcome | Entry: "Clc1cccc(SC2CCNCC2)n1"
A. inactive

Q. Which outcome did this test record for the molecule "C=CC(=O)OCC(C)C" ?
A. inactive

Q. Recorded call for CC(=O)NC1CCSC1=O (stereo not given) ?
A. inactive

Q. Identify the outcome logged in this assay for the molecule shown: "O=C(CBr)Nc1ccc(Cl)cc1C(=O)c1ccccc1F"
A. inactive

Q. Please state the recorded outcome for this molecule: CC1Sc2c(C(=O)O)c(=O)c3cc(F)c(N4CCNCC4)cc3n21 (stereo not given)
A. inactive

Q. Assay result, entry "N#CCC#N" — outcome?
A. active

Q. Hi, do you know how "O=C(O)COc1ccc(Cl)cc1" came out in this test?
A. inactive

Q. Status in this test for CNC(C)Cc1ccccc1OC (stereo not given) ?
A. inactive

Q. Give the logged outcome of this assay for the following molecule: "COP(=O)(OC)O/C(=C/Cl)c1cc(Cl)c(Cl)cc1Cl"
A. inactive

Q. GET /call?item= "C=CC(=O)OC" returns the recorded outcome of this test.
A. inactive

Q. Would you mind telling me which call this test gave "O=[N+]([O-])c1ccc(F)c([N+](=O)[O-])c1" ?
A. inactive

Q. Which outcome did this test record for the molecule "COP(=S)(OC)Oc1ccc([N+](=O)[O-])cc1Cl" ?
A. inactive

Q. Recorded test call requested for "O=[Se]=O"
A. inactive

Q. Lab log entry: "COc1cc(Cl)c(OC)cc1Cl" — outcome as called in the assay?
A. inactive

Q. Tell me the assay call for "O=NN1CCNCC1" please.
A. inactive

Q. How was "CC(Cl)Cl" classified in this test?
A. inactive

Q. Tell me the recorded outcome of this test for "c1ccoc1" .
A. inactive

Q. Identify the outcome logged in this assay for the molecule shown: "ClCc1ccccc1"
A. inactive

Q. Per the records of this test, what outcome belongs to "O=C(Nc1ccccc1)Nc1cnns1" ?
A. inactive

Q. Hello, I am checking results. What call was entered for "CCOc1nc(F)cc2nc(S(=O)(=O)Nc3c(Cl)cccc3Cl)nn12" ?
A. inactive

Q. Field: outcome | Entry: COc1cc(CC(C)N)cc2c1OCO2 (stereo not given)
A. inactive

Q. Which outcome was entered for the molecule "O=C(O)C(F)(F)C(F)(F)C(F)(F)C(F)(F)C(F)(F)C(F)(F)C(F)(F)C(F)(F)C(F)(F)F" in this test?
A. inactive

Q. Would you mind telling me which call this test gave CN1C(=O)C(O)N=C(c2ccccc2)c2cc(Cl)ccc21 (stereo not given) ?
A. inactive

Q. Call for entry "C=CCN1CC[C@]23c4c5ccc(O)c4O[C@H]2C(=O)CC[C@@]3(O)[C@H]1C5" :
A. inactive

Q. Could you check what this test reported for "CCOc1ccc(C(C)(C)COCc2cccc(Oc3ccccc3)c2)cc1" ?
A. inactive

Q. For "O=S(=O)(Cl)c1ccccc1" , what call appears in the results of this test?
A. inactive

Q. How did this test come out for "CC(=O)[C@H]1CC[C@H]2[C@@H]3CC[C@H]4C[C@](C)(O)CC[C@]4(C)[C@H]3CC[C@]12C" ?
A. inactive

Q. Recorded test outcome, item CC(C)N(CCC(C(N)=O)(c1ccccc1)c1ccccn1)C(C)C (stereo not given)
A. inactive

Q. For this molecule, state the assay outcome: CCOP(=S)(Oc1ccc([N+](=O)[O-])cc1)c1ccccc1 (stereo not given)
A. inactive

Q. Entry "Oc1ccc(Cl)c(Cl)c1Cl" : call = ?
A. inactive

Q. How did this test come out for Cc1c(F)c(F)c(COC(=O)C2C(/C=C(\Cl)C(F)(F)F)C2(C)C)c(F)c1F (stereo not given) ?
A. inactive

Q. Hey, what did the test say about "CCCCCCCCCC(=O)O[C@H]1CC[C@H]2[C@@H]3CCC4=CC(=O)CC[C@@H]4[C@H]3CC[C@]12C" ?
A. inactive

Q. Could you kindly confirm the outcome this assay logged for CN1[C@@H]2CC[C@H]1CC(OC(=O)c1cc(Cl)cc(Cl)c1)C2 (stereo not given in full) ?
A. inactive

Q. What did this assay record as the result for "NS(=O)(=O)C(F)(F)C(F)(F)C(F)(F)C(F)(F)C(F)(F)C(F)(F)C(F)(F)C(F)(F)F" ?
A. inactive

Q. Called result for "O=C(O)C1(c2ccc3c(c2)OC[C@H](Cc2ccc(-c4ccccc4)cc2)[C@H]3O)CCCC1"
A. inactive

Q. Given "CO/C=C(/C(=O)OC)c1ccccc1COc1cccc(C(F)(F)F)n1" , state the outcome it received in this test.
A. inactive

Q. Per the records of this test, what outcome belongs to "CCc1ccc(C(=O)NN(C(=O)c2cc(C)cc(C)c2)C(C)(C)C)cc1" ?
A. inactive

Q. Recorded test call requested for "C#CCOC(C(=O)OCCN(C)C)(c1ccccc1)c1ccccc1"
A. inactive

Q. Called result for "O=[N+]([O-])c1ccccc1CCl"
A. inactive

Q. Please let me know the test result on file for "CCOC(=O)COc1cc(-c2nn(C)c(OC(F)F)c2Cl)c(F)cc1Cl" .
A. inactive

Q. For "C=CCOC(C)=O" , which call appears in the assay record?
A. inactive

Q. Given "C=C(C#N)CCC#N" , state the outcome it received in this test.
A. inactive

Q. What did this assay record as the result for "Cc1ccc(N)cc1C" ?
A. inactive

Q. What outcome does the record of this test show for "Clc1cc(Cl)c(Cl)c(Cl)c1" ?
A. inactive

Q. Call for entry "CCCCc1c(C)nc(NCC)nc1OS(=O)(=O)N(C)C" :
A. inactive

Q. Hi team, can someone confirm the assay call for COC(=O)C(C)N(C(=O)Cc1ccccc1)c1c(C)cccc1C (stereo not given) ?
A. inactive

Q. How did this test come out for "C(=NC1CCCCC1)=NC1CCCCC1" ?
A. inactive

Q. I'd appreciate the recorded outcome for "CN1C[C@H](CNC(=O)OCc2ccccc2)C[C@@H]2c3cccc4c3c(cn4C)C[C@H]21" from this test.
A. inactive

Q. Outcome? "Cc1ccccc1CCl"
A. inactive

Source listed as PubChem BioAssay (Tox21).
